details: in acetonitrile, 290.65 K
assay_readout: solubility (mole fraction)

[
  {
    "smiles_notation": "O=C1NC(=O)c2ccccc21",
    "observed": 0.00209
  }
]

---

settings: in toluene, 315.65 K

[
  {
    "smiles_notation": "O=C1NC(=O)c2ccccc21",
    "solubility (mole fraction)": 0.00105
  }
]

---

conditions: in isobutanol, 315.65 K

[
  {
    "smiles_notation": "O=C1NC(=O)c2ccccc21",
    "solubility (mole fraction)": 0.00428
  }
]

---

settings: in acetone, 313.15 K

[
  {
    "smiles_notation": "O=C1NC(=O)c2ccccc21",
    "solubility (mole fraction)": 0.0194
  }
]

---

conditions: in isobutanol, 290.65 K

[
  {
    "smiles_notation": "O=C1NC(=O)c2ccccc21",
    "solubility (mole fraction)": 0.0019
  }
]

---

conditions: in n-butanol, 285.65 K

[
  {
    "smiles_notation": "O=C1NC(=O)c2ccccc21",
    "solubility (mole fraction)": 0.00185
  }
]

---

conditions: in n-propanol, 295.65 K

[
  {
    "smiles_notation": "O=C1NC(=O)c2ccccc21",
    "solubility (mole fraction)": 0.00242
  }
]

---

conditions: in n-propanol, 313.15 K
assay_readout: solubility (mole fraction)

[
  {
    "smiles_notation": "O=C1NC(=O)c2ccccc21",
    "assay_readout": "solubility (mole fraction)",
    "observed": 0.0043
  }
]

---

settings: in methanol, 315.65 K

[
  {
    "smiles_notation": "O=C1NC(=O)c2ccccc21",
    "solubility (mole fraction)": 0.00483
  }
]

---

conditions: in n-butanol, 310.65 K
assay_readout: solubility (mole fraction)

[
  {
    "smiles_notation": "O=C1NC(=O)c2ccccc21",
    "assay_readout": "solubility (mole fraction)",
    "observed": 0.00424
  }
]

---

details: in ethyl acetate, 305.65 K

[
  {
    "smiles_notation": "O=C1NC(=O)c2ccccc21",
    "solubility (mole fraction)": 0.0097
  }
]

---

details: in isobutanol, 295.65 K

[
  {
    "smiles_notation": "O=C1NC(=O)c2ccccc21",
    "solubility (mole fraction)": 0.00222
  }
]

---

settings: in acetonitrile, 310.65 K

[
  {
    "smiles_notation": "O=C1NC(=O)c2ccccc21",
    "solubility (mole fraction)": 0.00518
  }
]

---

details: in n-butanol, 313.15 K

[
  {
    "smiles_notation": "O=C1NC(=O)c2ccccc21",
    "solubility (mole fraction)": 0.00456
  }
]

---

settings: in n-propanol, 283.15 K
assay_readout: solubility (mole fraction)

[
  {
    "smiles_notation": "O=C1NC(=O)c2ccccc21",
    "assay_readout": "solubility (mole fraction)",
    "observed": 0.00156
  }
]

---

details: in toluene, 318.15 K

[
  {
    "smiles_notation": "O=C1NC(=O)c2ccccc21",
    "solubility (mole fraction)": 0.00114
  }
]

---

details: in n-propanol, 300.15 K
assay_readout: solubility (mole fraction)

[
  {
    "smiles_notation": "O=C1NC(=O)c2ccccc21",
    "assay_readout": "solubility (mole fraction)",
    "observed": 0.00282
  }
]

The reported numbers originate from BigSolDB 2.1.
